Reference source for all entries: PubChem BioAssay AID1195

Test system: human maximum recommended daily dose, FDA database
MEASUREMENT_NOTES: DSSTox (FDAMDD) FDA Maximum (Recommended) Daily Dose Database
CONDITION_INFO: TherapeuticCategory: antiadrenergic; cardiac depressant; hits give low values
PARAMETER_MEASURED: maximum recommended daily dose (mmol/kg-bw/day)

Problem: Would you kindly share the measured maximum recommended daily dose (mmol/kg-bw/day) for CC[N+](C)(C)Cc1ccccc1Br ?
Solution: 0.0121

----------
Please respond with reported maximum recommended daily dose (mmol/kg-bw/day) for every item in the list.
Tested on: human maximum recommended daily dose, FDA database
MEASUREMENT_NOTES: DSSTox (FDAMDD) FDA Maximum (Recommended) Daily Dose Database
CONDITION_INFO: TherapeuticCategory: antihypertensive; antianginal; hits give low values
One number for each entry.

See these solved cases before continuing.
{"COMPOUND": "COC(=O)C1=C(C)NC(C)=C(C(=O)OCC(C)C)C1c1ccccc1[N+](=O)[O-] (configuration not stated)", "REPORTED_RESULT": 0.00172}
{"COMPOUND": "CCN(CC)C(=O)Nc1ccc(OCC(O)CNC(C)(C)C)c(C(C)=O)c1 (configuration not stated)", "REPORTED_RESULT": 0.0176}
{"COMPOUND": "COCCc1ccc(OCC(O)CNC(C)C)cc1 (configuration not stated)", "REPORTED_RESULT": 0.0249}
{"COMPOUND": "COC(=O)C1=C(C)NC(C)=C(C(=O)OC(C)C)C1c1cccc2nonc12 (configuration not stated)", "REPORTED_RESULT": 0.00045}
{"COMPOUND": "CC(C)(C)NCC(O)COc1cccc2c1C[C@H](O)[C@H](O)C2 (some centres not stated)", "REPORTED_RESULT": 0.0346}
{"COMPOUND": "COc1ccccc1OCCNCC(O)COc1cccc2[nH]c3ccccc3c12 (configuration not stated)", "REPORTED_RESULT": 0.00103}

Problem: Would you kindly share the measured maximum recommended daily dose (mmol/kg-bw/day) for CCOC(=O)C1=C(C)NC(C)=C(C(=O)OC)C1c1cccc(Cl)c1Cl (configuration not stated) ?
Solution: 0.000867

----------
Tested on: human maximum recommended daily dose, FDA database
MEASUREMENT_NOTES: DSSTox (FDAMDD) FDA Maximum (Recommended) Daily Dose Database
CONDITION_INFO: TherapeuticCategory: anxiolytic; hits give low values
# note: exactly 0.0006 is not below, so it is Not satisfied; use Satisfied for maximum recommended daily dose (mmol/kg-bw/day) strictly under it

{"MOLECULE": "CCC1C(C)=NN=C(c2ccc(OC)c(OC)c2)c2cc(OC)c(OC)cc21 (stereo unspecified)", "ASSAYED_TARGET": "human maximum recommended daily dose, FDA database", "CLASS_ASSIGNMENT": "Not satisfied"}

Problem: API: query returns whether the molecule falls strictly under 0.0006 in maximum recommended daily dose (mmol/kg-bw/day). Query: Cc1nnc2n1-c1ccc(Cl)cc1C(c1ccccc1)=NC2
Solution: Satisfied

Problem: // query: O=C1CN2CCOC2(c2ccccc2Cl)c2cc(Cl)ccc2N1 (stereo unspecified)
Solution: Satisfied

Problem: // query: C[C@@H]1CN2CC(=O)Nc3ccc(Cl)cc3[C@]2(c2ccccc2)O1
Solution: Not satisfied

Problem: // query: O=C1CN=C(c2ccccc2)c2cc(Cl)ccc2N1CC1CC1
Solution: Not satisfied

Problem: // query: O=C1CC2(CCCC2)CC(=O)N1CCCCN1CCN(c2ncccn2)CC1
Solution: Not satisfied

Problem: // query: CCc1cc2c(s1)-n1c(C)nnc1CN=C2c1ccccc1Cl
Solution: Satisfied

Problem: // query: C#CCN1C(=O)CN=C(c2ccccc2)c2cc(Cl)ccc21
Solution: Not satisfied

Problem: // query: CN1CCN(C2=Nc3ccccc3Oc3ccc(Cl)cc32)CC1
Solution: Not satisfied

Problem: // query: O=C1Nc2ccc(Cl)cc2C(c2ccccc2Cl)=NC1O (stereo unspecified)
Solution: Satisfied

Problem: // query: O=C1CN2CCOC2(c2ccccc2F)c2cc(Cl)ccc2N1CCO (stereo unspecified)
Solution: Satisfied

----------
Test system: human maximum recommended daily dose, FDA database
MEASUREMENT_NOTES: DSSTox (FDAMDD) FDA Maximum (Recommended) Daily Dose Database
CONDITION_INFO: TherapeuticCategory: antihistaminic; hypnotic; hits give low values
PARAMETER_MEASURED: maximum recommended daily dose (mmol/kg-bw/day)
Answers are plain numbers.

Problem: Would you kindly share the measured maximum recommended daily dose (mmol/kg-bw/day) for CN(C)CCOC(C)(c1ccccc1)c1ccccn1 (stereo unspecified) ?
Solution: 0.00154

----------
System: human maximum recommended daily dose, FDA database
MEASUREMENT_NOTES: DSSTox (FDAMDD) FDA Maximum (Recommended) Daily Dose Database
CONDITION_INFO: TherapeuticCategory: antibacterial; dermatitis herpetiformis suppressant; hits give low values
PARAMETER_MEASURED: maximum recommended daily dose (mmol/kg-bw/day)
Give bare numbers.

Problem: Would you kindly share the measured maximum recommended daily dose (mmol/kg-bw/day) for Nc1ccc(S(=O)(=O)c2ccc(N)cc2)cc1 ?
Solution: 0.0201

----------
Test system: human maximum recommended daily dose, FDA database
MEASUREMENT_NOTES: DSSTox (FDAMDD) FDA Maximum (Recommended) Daily Dose Database
CONDITION_INFO: TherapeuticCategory: selective agonist (tear and salivary production); hits give low values
PARAMETER_MEASURED: maximum recommended daily dose (mmol/kg-bw/day)

Problem: # returns recorded maximum recommended daily dose (mmol/kg-bw/day) (system: human maximum recommended daily dose, FDA database) for C[C@@H]1O[C@@]2(CS1)CN1CCC2CC1
Solution: 0.00613

----------
System: human maximum recommended daily dose, FDA database
MEASUREMENT_NOTES: DSSTox (FDAMDD) FDA Maximum (Recommended) Daily Dose Database
CONDITION_INFO: TherapeuticCategory: antiviral; hits give low values
# note: exactly 0.03 is not below, so it is not fulfilled; use fulfilled for maximum recommended daily dose (mmol/kg-bw/day) strictly under it

Here's what some known entries look like.
{"COMPOUND": "CC(C)Nc1cccnc1N1CCN(C(=O)c2cc3cc(NS(C)(=O)=O)ccc3[nH]2)CC1", "CLASS_ASSIGNMENT": "fulfilled"}
{"COMPOUND": "CC(N)C12CC3CC(CC(C3)C1)C2 (configuration not stated)", "CLASS_ASSIGNMENT": "fulfilled"}
{"COMPOUND": "Nc1ccn([C@H]2CS[C@@H](CO)O2)c(=O)n1", "CLASS_ASSIGNMENT": "fulfilled"}
{"COMPOUND": "NC(=O)c1ncn([C@@H]2O[C@H](CO)[C@@H](O)[C@H]2O)n1", "CLASS_ASSIGNMENT": "not fulfilled"}

Problem: API: query returns whether the compound falls strictly under 0.03 in maximum recommended daily dose (mmol/kg-bw/day). Query: Cc1cn([C@H]2C[C@H](N=[N+]=[N-])[C@@H](CO)O2)c(=O)[nH]c1=O
Solution: not fulfilled

Problem: // query: CC(C)[C@H](N)C(=O)OCCOCn1cnc2c(=O)[nH]c(N)nc21
Solution: not fulfilled

Problem: // query: O=C(O)P(=O)(O)O
Solution: not fulfilled

Problem: // query: O=c1[nH]cnc2c1ncn2[C@H]1CC[C@@H](CO)O1
Solution: fulfilled

----------
Tested on: human maximum recommended daily dose, FDA database
MEASUREMENT_NOTES: DSSTox (FDAMDD) FDA Maximum (Recommended) Daily Dose Database
CONDITION_INFO: TherapeuticCategory: antidote to folic acid antagonists; antianemic; hits give low values
PARAMETER_MEASURED: maximum recommended daily dose (mmol/kg-bw/day)
Numbers only.

Problem: Would you kindly share the measured maximum recommended daily dose (mmol/kg-bw/day) for Nc1nc2c(c(=O)[nH]1)N(C=O)C(CNc1ccc(C(=O)NC(CCC(=O)O)C(=O)O)cc1)CN2 (stereo unspecified) ?
Solution: 0.0114

----------
System: human maximum recommended daily dose, FDA database
MEASUREMENT_NOTES: DSSTox (FDAMDD) FDA Maximum (Recommended) Daily Dose Database
CONDITION_INFO: TherapeuticCategory: decongestant; anorexic; hits give low values
PARAMETER_MEASURED: maximum recommended daily dose (mmol/kg-bw/day)

Problem: Would you kindly share the measured maximum recommended daily dose (mmol/kg-bw/day) for C[C@@H](N)[C@@H](O)c1ccccc1 ?
Solution: 0.0198

----------
System: human maximum recommended daily dose, FDA database
MEASUREMENT_NOTES: DSSTox (FDAMDD) FDA Maximum (Recommended) Daily Dose Database
CONDITION_INFO: TherapeuticCategory: treatment of narcotic addiction; hits give low values
PARAMETER_MEASURED: maximum recommended daily dose (mmol/kg-bw/day)
One number for each entry.

Problem: Would you kindly share the measured maximum recommended daily dose (mmol/kg-bw/day) for CC[C@H](OC(C)=O)C(C[C@H](C)N(C)C)(c1ccccc1)c1ccccc1 ?
Solution: 0.0113
